Values were extracted from the supplement of paper PMC11732987.

- tested_system: USP24 (UniProt Q9UPU5)
- Sequence (Q9UPU5 whole entry, the tested form may be a part): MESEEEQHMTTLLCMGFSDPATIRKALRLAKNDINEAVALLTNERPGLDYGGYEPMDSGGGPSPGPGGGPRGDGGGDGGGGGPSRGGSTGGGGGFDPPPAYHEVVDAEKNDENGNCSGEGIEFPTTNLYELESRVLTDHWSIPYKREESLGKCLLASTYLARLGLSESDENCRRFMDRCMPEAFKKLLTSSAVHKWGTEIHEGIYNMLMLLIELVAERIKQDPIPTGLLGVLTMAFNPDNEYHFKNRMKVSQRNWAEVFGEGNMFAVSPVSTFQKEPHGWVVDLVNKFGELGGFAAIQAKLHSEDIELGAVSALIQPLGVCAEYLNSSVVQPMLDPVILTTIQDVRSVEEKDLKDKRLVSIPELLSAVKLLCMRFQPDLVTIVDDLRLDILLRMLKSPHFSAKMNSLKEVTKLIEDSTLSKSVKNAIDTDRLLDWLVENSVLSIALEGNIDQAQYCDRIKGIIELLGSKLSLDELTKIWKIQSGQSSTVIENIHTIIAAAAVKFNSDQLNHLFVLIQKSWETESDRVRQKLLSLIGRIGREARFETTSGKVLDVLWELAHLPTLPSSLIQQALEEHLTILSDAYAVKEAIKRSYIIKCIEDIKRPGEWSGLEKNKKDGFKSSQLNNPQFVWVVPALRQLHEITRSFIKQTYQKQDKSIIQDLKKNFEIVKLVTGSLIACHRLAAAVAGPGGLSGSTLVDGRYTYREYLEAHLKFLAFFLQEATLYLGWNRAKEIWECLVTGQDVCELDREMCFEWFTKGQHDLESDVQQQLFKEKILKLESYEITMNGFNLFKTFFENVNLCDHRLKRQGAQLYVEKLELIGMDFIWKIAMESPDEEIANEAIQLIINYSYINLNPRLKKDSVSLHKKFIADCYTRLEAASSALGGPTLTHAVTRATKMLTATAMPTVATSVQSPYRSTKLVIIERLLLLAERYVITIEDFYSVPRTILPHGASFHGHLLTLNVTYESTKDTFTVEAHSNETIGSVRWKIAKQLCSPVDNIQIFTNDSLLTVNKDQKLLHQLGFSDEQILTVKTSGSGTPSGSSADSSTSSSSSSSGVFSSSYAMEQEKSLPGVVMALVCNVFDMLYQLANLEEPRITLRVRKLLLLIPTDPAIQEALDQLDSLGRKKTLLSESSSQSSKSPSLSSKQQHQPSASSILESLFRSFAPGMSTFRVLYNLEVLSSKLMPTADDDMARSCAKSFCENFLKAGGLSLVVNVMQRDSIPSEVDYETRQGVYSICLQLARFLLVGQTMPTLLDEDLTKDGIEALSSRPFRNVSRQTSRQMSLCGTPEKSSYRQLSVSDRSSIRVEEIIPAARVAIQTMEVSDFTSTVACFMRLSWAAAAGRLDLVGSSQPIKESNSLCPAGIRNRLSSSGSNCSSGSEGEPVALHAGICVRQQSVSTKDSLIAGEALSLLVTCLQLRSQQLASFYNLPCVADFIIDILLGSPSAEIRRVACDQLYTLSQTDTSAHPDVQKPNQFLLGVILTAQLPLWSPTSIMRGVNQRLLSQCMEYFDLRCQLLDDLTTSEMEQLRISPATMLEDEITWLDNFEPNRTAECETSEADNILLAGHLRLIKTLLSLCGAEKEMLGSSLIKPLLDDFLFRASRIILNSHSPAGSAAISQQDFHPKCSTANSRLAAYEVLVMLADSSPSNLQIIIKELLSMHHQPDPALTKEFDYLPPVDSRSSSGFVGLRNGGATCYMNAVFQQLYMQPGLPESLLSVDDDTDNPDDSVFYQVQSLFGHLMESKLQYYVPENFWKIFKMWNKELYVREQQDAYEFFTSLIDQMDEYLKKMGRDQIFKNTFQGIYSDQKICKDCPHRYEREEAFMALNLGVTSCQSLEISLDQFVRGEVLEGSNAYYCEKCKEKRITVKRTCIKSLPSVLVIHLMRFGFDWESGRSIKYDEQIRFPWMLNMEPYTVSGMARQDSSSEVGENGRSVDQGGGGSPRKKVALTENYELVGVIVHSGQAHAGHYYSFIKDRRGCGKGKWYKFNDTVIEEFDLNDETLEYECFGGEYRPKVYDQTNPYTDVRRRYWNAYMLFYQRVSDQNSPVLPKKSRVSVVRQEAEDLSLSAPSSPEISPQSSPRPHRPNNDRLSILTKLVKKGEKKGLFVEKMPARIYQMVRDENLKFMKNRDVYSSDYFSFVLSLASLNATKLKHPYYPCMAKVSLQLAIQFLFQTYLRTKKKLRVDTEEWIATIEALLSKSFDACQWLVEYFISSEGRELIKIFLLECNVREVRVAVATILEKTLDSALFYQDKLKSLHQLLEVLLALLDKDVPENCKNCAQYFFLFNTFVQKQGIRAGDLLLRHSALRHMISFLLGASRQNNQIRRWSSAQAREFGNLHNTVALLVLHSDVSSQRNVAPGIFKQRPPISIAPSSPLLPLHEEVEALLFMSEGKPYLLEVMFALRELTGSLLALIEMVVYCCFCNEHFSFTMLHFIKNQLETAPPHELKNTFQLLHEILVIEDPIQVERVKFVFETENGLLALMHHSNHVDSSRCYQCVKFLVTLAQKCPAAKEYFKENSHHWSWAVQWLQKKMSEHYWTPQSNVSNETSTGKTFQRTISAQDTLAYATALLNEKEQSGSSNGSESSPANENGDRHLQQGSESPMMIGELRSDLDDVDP
- test_method_notes: log2 ratio of Biotin-Ahx-Ub-VS probe labelling (fragment/DMSO); higher = less target engagement (more negative = stronger competition), active = hit call of the paper (q ≤ 0.05, log2 ratio ≤ -1)
- assay_setup: compound concentration: 200 uM; treatment time: 3 h
Form entry, call: pick from active, inactive

Past entries and their recorded results:
compound: N#Cc1cnn(-c2ccccc2)c1NC(=O)CCl
class: inactive
--
compound: N#Cc1ccc(Cl)cc1NC(=O)CCl
class: inactive
--
compound: O=C(CCl)Nc1cc(Cl)ccc1-n1cncn1
class: active
--
compound: O=C(CCl)N1CCOCCC1c1ccccc1 (configuration not stated)
class: inactive
--
compound: C#Cc1cccc(NC(=O)CCl)c1
class: inactive

How did this test come out for `Cl.O=C(CCl)N1CCC(n2nc3ccccc3n2)CC1` ? active

Any idea what this test logged for `O=C(CCl)NCc1cccc(F)c1` ? inactive

====

- tested_system: PSMD7 (UniProt P51665)
- Sequence (P51665 whole entry, the tested form may be a part): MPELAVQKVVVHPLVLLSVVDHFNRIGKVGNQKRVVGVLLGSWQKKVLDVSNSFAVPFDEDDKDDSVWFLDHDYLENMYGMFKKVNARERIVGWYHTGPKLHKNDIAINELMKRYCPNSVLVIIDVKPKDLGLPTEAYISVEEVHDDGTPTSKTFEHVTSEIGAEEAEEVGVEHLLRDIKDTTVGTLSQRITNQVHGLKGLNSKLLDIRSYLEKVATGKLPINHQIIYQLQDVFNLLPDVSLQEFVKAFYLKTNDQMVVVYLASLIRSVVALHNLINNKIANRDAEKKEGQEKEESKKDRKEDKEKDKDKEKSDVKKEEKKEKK
- test_method_notes: log2 ratio of Biotin-Ahx-Ub-VS probe labelling (fragment/DMSO); higher = less target engagement (more negative = stronger competition), active = hit call of the paper (q ≤ 0.05, log2 ratio ≤ -1)
- assay_setup: compound concentration: 200 uM; treatment time: 3 h
Criterion: log2 ratio of Biotin-Ahx-Ub-VS probe labelling meeting or surpassing -0.1. Met: label 1. Not met: label 0.

compound: Cc1cc(C2CCCN2C(=O)CCl)nn1C.Cl (configuration not stated)
tested_system: PSMD7 (UniProt P51665)
class: label 0
//
compound: O=C(CCl)N1CCN2C(=O)CCC2C1 (configuration not stated)
tested_system: PSMD7 (UniProt P51665)
class: label 0
//
compound: COCC[C@@H](NC(=O)CCl)c1ccccc1
tested_system: PSMD7 (UniProt P51665)
class: label 0
//
compound: Cc1cccc(C)c1NC(=O)CCl
tested_system: PSMD7 (UniProt P51665)
class: label 0
//
compound: O=C(CCl)NC1CCOc2ccccc21 (configuration not stated)
tested_system: PSMD7 (UniProt P51665)
class: label 1

Hi, just wondering whether Cc1nnc(C(NC(=O)CCl)c2ccccc2)n1C (configuration not stated) shows log2 ratio of Biotin-Ahx-Ub-VS probe labelling of -0.1 or higher. label 1

Quick check: does `Cl.O=C(CCl)N1CCC(n2nc3ccccc3n2)CC1` have log2 ratio of Biotin-Ahx-Ub-VS probe labelling greater than or equal to -0.1? label 0

Threshold query (log2 ratio of Biotin-Ahx-Ub-VS probe labelling >= -0.1) on Cl.Cn1ncc2c1CC(NC(=O)CCl)CC2 (configuration not stated) label 0

Check this compound for log2 ratio of Biotin-Ahx-Ub-VS probe labelling at or above -0.1: `O=C(CCl)NCc1noc(C2CC2)n1` label 0

Decide: log2 ratio of Biotin-Ahx-Ub-VS probe labelling of O=C(O)C1Cc2ccccc2CN1C(=O)CCl (configuration not stated) >= -0.1? label 0

Tell me whether log2 ratio of Biotin-Ahx-Ub-VS probe labelling is at least -0.1 here: `COc1cc(Cl)c(C)cc1NC(=O)CCl` label 0

Could you verify whether the entry `O=C(CCl)N[C@H]1CC[C@@H](CO)CC1` shows log2 ratio of Biotin-Ahx-Ub-VS probe labelling of no less than -0.1? label 0

Would you say COc1ccc(C2CCCN2C(=O)CCl)c(OC)c1 (configuration not stated) shows log2 ratio of Biotin-Ahx-Ub-VS probe labelling at minimum -0.1? label 0

Check the entry O=C(CCl)N1CCc2nc[nH]c2C1c1ccc(Cl)cc1 (configuration not stated) : does log2 ratio of Biotin-Ahx-Ub-VS probe labelling equal or exceed -0.1? label 0

Hello, I need to know if `O=C(CCl)NC1CCN(C(=O)C2CCCCC2)CC1` has measured log2 ratio of Biotin-Ahx-Ub-VS probe labelling not below -0.1. Thanks! label 0

Would you say `O=C(CCl)NC1CCC2(CC1)OCCO2` shows log2 ratio of Biotin-Ahx-Ub-VS probe labelling at minimum -0.1? label 0

Dear colleague, could you confirm whether `Cc1cnc2[nH]cc(CCNC(=O)CCl)c2c1` has log2 ratio of Biotin-Ahx-Ub-VS probe labelling at or above -0.1? label 0

Quick check: does `CN(C)C(=O)c1ccc(NC(=O)CCl)cc1` have log2 ratio of Biotin-Ahx-Ub-VS probe labelling greater than or equal to -0.1? label 0

Evaluate `Cl.O=C(CCl)NCc1cc2c(nc1O)CCCC2` : log2 ratio of Biotin-Ahx-Ub-VS probe labelling at minimum -0.1? label 0

Does log2 ratio of Biotin-Ahx-Ub-VS probe labelling meet or surpass -0.1 for CN(CCC(O)c1ccc(Br)cc1)C(=O)CCl (configuration not stated) ? label 0

Tell me whether log2 ratio of Biotin-Ahx-Ub-VS probe labelling is at least -0.1 here: `Cn1cc(CN(Cc2ccc(Cl)cc2)C(=O)CCl)cn1` label 1

Tell me whether log2 ratio of Biotin-Ahx-Ub-VS probe labelling is at least -0.1 here: `Cc1noc(N2CCN(C(=O)CCl)CC2)n1.Cl` label 1

# check: log2 ratio of Biotin-Ahx-Ub-VS probe labelling of O=C(CCl)N1CCOCC1C1CC1 (configuration not stated) is greater than or equal to -0.1 label 0

Could you verify whether the entry `O=C(CCl)N1CCC2(CCC(O)CC2)CC1` shows log2 ratio of Biotin-Ahx-Ub-VS probe labelling of no less than -0.1? label 0
